# PROTOCOL TEXT: Pharmacokinetics in plasma and brain after IP dosing
# Assay type: in vivo
# CONDITION DETAILS: male, Sprague Dawley; plasma, 10 mg/kg IP, rat
# Procedure: Pharmacokinetics studies were carried out at WuXi Apptec, Inc. (Cranbury, NJ, USA) using standard protocols. All animal use and procedures were approved by the WuXi Apptec, Inc., IACUC. […] The bioanalytical assay provided a lower limit of quantification (LLOQ) of 1 ng/mL and an upper limit of quantification (ULOQ) of 3000 ng/mL for methylone. The plasma concentration-time data were analyzed using Phoenix WinNonlin (version 8.3) to characterize the PK properties of the analyte. […]
MEASURE NAME: AUC(0-t) (ng·h/mL)
Output spec: scalar in ng·h/mL, unitless text.

Qu. Field request: AUC(0-t) | item: CNC(C)C(=O)c1ccc2c(c1)OCO2 (stereo not shown) [methylone, 3,4-methylenedioxy-N-methylcathinone]
Ans. 3240

From: paper PMC9873307
